# system-name: Cytochrome P450 1A2 (Homo sapiens) (UniProt P05177)
# Sequence (P05177 whole entry, looked up): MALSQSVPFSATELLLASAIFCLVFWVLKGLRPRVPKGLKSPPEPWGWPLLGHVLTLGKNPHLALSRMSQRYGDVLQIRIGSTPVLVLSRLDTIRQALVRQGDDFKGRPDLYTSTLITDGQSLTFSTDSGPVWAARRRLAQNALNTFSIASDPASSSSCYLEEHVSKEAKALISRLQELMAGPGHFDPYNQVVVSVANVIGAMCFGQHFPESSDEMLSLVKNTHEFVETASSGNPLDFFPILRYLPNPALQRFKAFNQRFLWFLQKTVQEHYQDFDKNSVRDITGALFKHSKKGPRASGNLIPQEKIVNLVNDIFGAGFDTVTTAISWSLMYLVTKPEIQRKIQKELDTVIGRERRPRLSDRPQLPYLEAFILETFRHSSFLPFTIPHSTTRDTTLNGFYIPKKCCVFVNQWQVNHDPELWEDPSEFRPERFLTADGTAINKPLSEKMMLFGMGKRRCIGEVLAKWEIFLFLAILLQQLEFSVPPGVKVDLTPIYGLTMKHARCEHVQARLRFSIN
# test-summary: p450-cyp1a2 (AID 410)
# assay-setup: recombinant CYP1A2, luciferin-ME demethylation, luminescence; series mostly up to 57 µM
# Description: The P450 gene superfamily is involved in metabolism and the clearance of xenobiotics. This assay used human CYP1A2 to measure the demethylation of luciferin 6' methyl ether (Luciferin-ME; Promega-Glo) to luciferin. The luciferin is then measured by luminescence after the addition of a luciferase detection regeant. Luciferin-ME concentration in the assay was equal to its Km for CYP1A2. NCGC Assay Protocol Summary: […]
Records with an inconclusive call do not appear. Active and inactive are the calls of the source. The call rests on the fitted dose curve.
Answer with one of the outcomes 1.0 for active, 0.0 for inactive

Use these answered entries as a reference point.
COc1ccc(Oc2ncc3nc(-c4cccs4)c(=O)n(C)c3n2)cc1: 1.0
O=C(c1csnn1)N1CCC2(CCN(Cc3ccccc3)CC2)CC1: 0.0
COc1cccc(Nc2ncc3nc(-c4ccccc4)c(=O)n(C)c3n2)c1: 1.0
CC(C)NC(=O)N1CCCC2(CCN(C(=O)c3csnn3)CC2)C1: 0.0
COc1cccc(-c2nccc(NCc3ccccc3OC)n2)c1: 1.0

Proceed to the following item.
[in] Can you look up the reported call for `COc1ccccc1-c1ccc2ncnc(NCc3cnc(C)cn3)c2c1` for me?
[out] 1.0

====

# Test system: JCK
# test-summary: qHTS profiling for inhibitors of Plasmodium falciparum proliferation (AID 504749);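 further: 0% = DMSO vehicle and full inhibition = artemisinin control; nearly all actives have a fitted effect of over 60% in size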
# assay-setup: P. falciparum in erythrocytes, SYBR Green DNA, 72 h; series mostly up to 12.8 µM
Inconclusive results are not listed. Active and inactive are the calls of the source. The call rests on the fitted dose curve; in most records, active means well fitted inhibition curve with a large enough effect; inconclusive means small, poorly fitted or top-dose-only effect; inactive means flat fitted curve, though single readings scatter.
test-readout: outcome

CN[C@@H]1[C@H](O[C@@H]2O[C@H](CO)[C@@H](N)[C@H](O)[C@@H]2O)O[C@H]2C[C@@H](N)[C@@H](O[C@H]3[C@@H](O)[C@H](O)[C@H](N)C[C@@H]3N)O[C@H]2[C@H]1O: inactive
COCCc1ccc(OC[C@H](O)CNC(C)C)cc1: inactive
CCCN[C@@H](C)C(=O)Nc1c(C)csc1C(=O)OC: inactive
CN[C@@H](CC(C)C)C(=O)N[C@@H]1C(=O)N[C@H](CC(N)=O)C(=O)N[C@@H]2C(=O)N[C@H]3C(=O)N[C@H](C(=O)N[C@H](C(=O)O)c4cc(O)cc(O)c4-c4cc3ccc4O)[C@H](O)c3ccc(c(Cl)c3)Oc3cc2cc(c3O[C@H]2O[C@@H](CO)[C@@H](O)[C@@H](O)[C@@H]2O[C@@H]2C[C@](C)(N)[C@H](O)[C@H](C)O2)Oc2ccc(cc2Cl)[C@@H]1O: inactive

====

# system-name: Lysosomal acid glucosylceramidase (Homo sapiens) (UniProt P04062)
# Sequence (P04062 whole entry, looked up): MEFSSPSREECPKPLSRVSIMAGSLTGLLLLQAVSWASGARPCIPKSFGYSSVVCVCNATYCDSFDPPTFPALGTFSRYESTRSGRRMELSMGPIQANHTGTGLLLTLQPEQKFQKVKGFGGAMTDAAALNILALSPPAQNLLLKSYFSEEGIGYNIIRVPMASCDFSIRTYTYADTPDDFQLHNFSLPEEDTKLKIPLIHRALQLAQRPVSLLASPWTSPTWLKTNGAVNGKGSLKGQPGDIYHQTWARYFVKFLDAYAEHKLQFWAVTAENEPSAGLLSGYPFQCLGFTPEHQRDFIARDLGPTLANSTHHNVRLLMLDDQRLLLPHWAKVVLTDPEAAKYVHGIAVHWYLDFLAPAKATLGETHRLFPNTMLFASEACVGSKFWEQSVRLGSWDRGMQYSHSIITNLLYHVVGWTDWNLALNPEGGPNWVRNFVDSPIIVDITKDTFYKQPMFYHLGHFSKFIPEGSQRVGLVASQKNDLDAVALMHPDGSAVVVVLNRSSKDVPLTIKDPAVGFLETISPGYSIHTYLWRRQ
# test-summary: Glucocerebrosidase-p2 (AID 348); further: potency means the concentration at half of the fitted maximal effect
# assay-setup: purified GBA, blue fluorogenic substrate, 40 min
Calls of active or inactive are those of the source. Rule as the data show it: active = potency below about 10 µM; inactive = the rest.
Listed next: entries and their corresponding Potency.

Completed entries (count: 5):
O=c1c(-c2cc(F)cc(F)c2)nc2cnc(N3CCOCC3)nc2n1Cc1ccc(F)cc1: > 11.4 µM (inactive)
CC(C)CN1CCCC2(CCN(C(=O)c3cccc(F)c3)CC2)C1: > 11.4 µM (inactive)
COc1ccc(C(=O)N2CCC3(CC2)CN(c2cccc(-c4ccccc4)c2)C3)cc1: > 11.4 µM (inactive)
O=C(Oc1ccccc1)N1CCC2(CC1)CN(c1ncccn1)C2: > 11.4 µM (inactive)
COc1ccc(C(=O)N2CCC3(CCN(Cc4ccccc4)CC3)CC2)cc1: > 11.4 µM (inactive)

[in] Endpoint output: Potency of `CN(C)Cc1ccccc1-c1cncnc1NCc1ccccc1` . Value?
[out] > 11.4 µM (inactive)

[in] Endpoint output: Potency of `COC(=O)N1CCC2(CC1)CCN(c1ccncc1)CC2` . Value?
[out] > 11.4 µM (inactive)

[in] Endpoint output: Potency of `COc1ccc(-n2c(=O)c(-c3ccc(F)cc3)nc3cnc(OC)nc32)cc1` . Value?
[out] > 11.4 µM (inactive)

[in] Endpoint output: Potency of `Cc1cnc(CNc2ncncc2-c2ccccc2Cl)cn1` . Value?
[out] > 11.4 µM (inactive)

[in] Endpoint output: Potency of `COc1ccc(-c2nc3cnc(N(C)C)nc3n(-c3ccccc3)c2=O)cc1` . Value?
[out] > 11.4 µM (inactive)

[in] Endpoint output: Potency of `O=C(c1csnn1)N1CCC2(CCCN(c3ccncc3)C2)CC1` . Value?
[out] > 11.4 µM (inactive)

Entry source: PubChem BioAssay (NCATS)
